# TARGET: HLA-A*02:06
# TEST: IEDB peptide-MHC binding, purified MHC/competitive/radioactivity; filed as Kd, often an IC50 or EC50 that approximates it; bounds were set here for any values at or beyond the usual limits of such assays
# CONDITION NOTES: source organism: Vaccinia virus WR
Give Kd for every item shown.

[ask] Provide one value: measured Kd of CVRNLEELTT
[reply] ≥ 42.8 µM

[ask] Provide one value: measured Kd of PTDMLKLFT
[reply] ≥ 69.2 µM

[ask] Provide one value: measured Kd of WLTPFEKEFT
[reply] ≥ 30.8 µM

[ask] Provide one value: measured Kd of DIVSDSKKIM
[reply] ≥ 69.8 µM

[ask] Provide one value: measured Kd of DTLVKSGLT
[reply] ≥ 52.7 µM

[ask] Provide one value: measured Kd of DISVNASKTI
[reply] ≥ 69.8 µM

[ask] Provide one value: measured Kd of EIITGNKVKT
[reply] ≥ 69.8 µM

[ask] Provide one value: measured Kd of TLNEYKQLYT
[reply] ≥ 69.8 µM

[ask] Provide one value: measured Kd of NLVQYRILPM
[reply] ≥ 24.5 µM

[ask] Provide one value: measured Kd of YVPSAEDNYL
[reply] ≥ 69.8 µM

[ask] Provide one value: measured Kd of GLYIPGTSVI
[reply] 3.62 µM

[ask] Provide one value: measured Kd of VASDVCKKNL
[reply] ≥ 69.8 µM

[ask] Provide one value: measured Kd of YIPPCQCTV
[reply] 0.0925 µM

[ask] Provide one value: measured Kd of IVLFQRFLR
[reply] ≥ 47.7 µM

[ask] Provide one value: measured Kd of TMKAIEKDRL
[reply] ≥ 69.8 µM

[ask] Provide one value: measured Kd of GTGILFMEM
[reply] 9.98 µM

[ask] Provide one value: measured Kd of LVKDESIQL
[reply] 1.4 µM

[ask] Provide one value: measured Kd of DTGKKELALT
[reply] 6.8 µM

[ask] Provide one value: measured Kd of CIVAAVIIMA
[reply] 0.733 µM

====

# TARGET: HLA-A*03:01
# TEST: IEDB peptide-MHC binding, purified MHC/competitive/radioactivity; filed as Kd, often an IC50 or EC50 that approximates it; bounds were set here for any values at or beyond the usual limits of such assays
# CONDITION NOTES: source organism: Vaccinia virus WR
Give Kd for every item shown.
Numeric only. Scale: nM

[ask] Provide one value: measured Kd of LTIKDSSNK
[reply] 827

[ask] Provide one value: measured Kd of IMVASDVCK
[reply] 150

[ask] Provide one value: measured Kd of SLSVETITEK
[reply] 33.2

[ask] Provide one value: measured Kd of IVLFQRFLR
[reply] 242

[ask] Provide one value: measured Kd of SIHLTKTDKK
[reply] 185

[ask] Provide one value: measured Kd of YLRNYMVIK
[reply] 1.34

[ask] Provide one value: measured Kd of LSRLRYNLCK
[reply] 92.9

[ask] Provide one value: measured Kd of KSSSIDVDKR
[reply] 2630

[ask] Provide one value: measured Kd of WFLKSGAVVK
[reply] 11

[ask] Provide one value: measured Kd of PISELSRLRY
[reply] 3270

[ask] Provide one value: measured Kd of NTPLHIVCSK
[reply] 32.4

[ask] Provide one value: measured Kd of NVIEDITFLR
[reply] 6720

[ask] Provide one value: measured Kd of KSKNINIEVK
[reply] 305

[ask] Provide one value: measured Kd of QLDEKSSIK
[reply] 204

[ask] Provide one value: measured Kd of AITPTIEDDK
[reply] 487

[ask] Provide one value: measured Kd of GSTAEQLSK
[reply] 307

[ask] Provide one value: measured Kd of DLIVTFRER
[reply] 12700

[ask] Provide one value: measured Kd of YFTFGDTALY
[reply] 9010

[ask] Provide one value: measured Kd of ATMLEYVRY
[reply] 1700

[ask] Provide one value: measured Kd of RVDIYYNGNK
[reply] 45.6

[ask] Provide one value: measured Kd of NFMVSVSDFR
[reply] 9960

[ask] Provide one value: measured Kd of HINALEYIIK
[reply] 117

[ask] Provide one value: measured Kd of TTKDYFSFKK
[reply] 31.3

[ask] Provide one value: measured Kd of NLPYNWKNFY
[reply] 1780

[ask] Provide one value: measured Kd of VTMMKYCSY
[reply] 650

[ask] Provide one value: measured Kd of GLTTHCTKLR
[reply] 5180

[ask] Provide one value: measured Kd of TFNSLNTDDY
[reply] 5440

[ask] Provide one value: measured Kd of KTDFKVVKK
[reply] 14.8

[ask] Provide one value: measured Kd of IITPVVFYR
[reply] 59.2

[ask] Provide one value: measured Kd of NTLSERISSK
[reply] 48.8

[ask] Provide one value: measured Kd of YVKNGTKGK
[reply] 2080

[ask] Provide one value: measured Kd of GILKKLSSIK
[reply] 13.9

[ask] Provide one value: measured Kd of VLDRDGNFR
[reply] 3330

[ask] Provide one value: measured Kd of ISARALKAY
[reply] 542

[ask] Provide one value: measured Kd of KLITPNYMK
[reply] 10.3
